- Tested on: field corn (Zea mays L., var. Dekalb 535, CORN)
- experiment notes: Post-emerge test, crop safety
- Type: in vivo
- cond: 250 g ai/ha; phytotoxicity rating 0-100 (0 no damage, 100 complete death), 14 days after application
Post-emerge Herbicidal Activity CORN (crop damage) strictly under 5 means rule met; at 5 or over means rule not met.

COc1c(Cl)cc(F)c(-n2c(=O)c(N)c(C(F)(F)F)n(C)c2=O)c1N ... rule met
COC(=O)C=CCOc1c(Cl)cc(F)c(-n2c(=O)cc(C(F)(F)F)n(C)c2=O)c1N ... rule not met
CCOC(=O)COc1c(Cl)cc(F)c(-n2c(=O)cc(C(F)(F)F)n(C)c2=O)c1N ... rule not met
COc1c(Cl)cc(F)c(-n2c(=O)c(NC(=O)C(F)(F)F)c(C(F)(F)F)n(C)c2=O)c1NC(=O)C(F)(F)F ... rule met
COc1c(Cl)cc(F)c(-n2c(=O)cc(C(F)(F)F)n(C)c2=O)c1NC(=O)c1ccc(C(C)(C)C)cc1 ... rule met
COc1c(Cl)cc(F)c(-n2c(=O)cc(C(F)(F)F)n(C)c2=O)c1N1CCCC1 ... rule met
COc1c(Cl)cc(F)c(-n2c(=O)cc(C(F)(F)F)n(C)c2=O)c1N(C(=O)C=C(C)C)C(=O)C=C(C)C ... rule met
C=C(C)C(=O)Nc1c(OC)c(Cl)cc(F)c1-n1c(=O)cc(C(F)(F)F)n(C)c1=O ... rule not met
CCOC(=O)CC(=O)Nc1c(OC(=O)CC(=O)OCC)c(Cl)cc(F)c1-n1c(=O)cc(C(F)(F)F)n(C)c1=O ... rule not met
CCOC(=O)C(C)Nc1cc(Cl)cc(F)c1-n1c(=O)cc(C(F)(F)F)n(C)c1=O (centres unmarked) ... rule not met
C#CCOc1c(Cl)cc(F)c(-n2c(=O)cc(C(F)(F)F)n(C)c2=O)c1N ... rule not met
COc1c(Cl)cc(F)c(-n2c(=O)cc(C(F)(F)F)n(C)c2=O)c1NC(=O)CC#N ... rule not met
COc1c(Cl)cc(F)c(-n2c(=O)cc(C(F)(F)F)n(C)c2=O)c1NC(C)=O ... rule not met
CCOC(=O)C(C)Oc1c(Cl)cc(F)c(-n2c(=O)cc(C(F)(F)F)n(C)c2=O)c1N (centres unmarked) ... rule not met
COc1c(Cl)cc(F)c(-n2c(=O)cc(C(F)(F)F)n(C)c2=O)c1NC(=O)C=C(C)C ... rule not met
CCOc1c(Cl)cc(F)c(-n2c(=O)cc(C(F)(F)F)n(C)c2=O)c1N ... rule not met

====

- System: field corn (Zea mays L., var. Dekalb 535, CORN)
- experiment notes: Post-emerge test, crop safety
- Assay type: in vivo
- cond: Rate 63 g ai/ha; rating scale 0-100 (0 no damage, 100 complete death); 14 days after application
Overview of recorded Post-emerge phytotoxicity rating CORN (crop damage) for various compounds
assay metric: Post-emerge phytotoxicity rating CORN (crop damage)

COc1c(Cl)cc(F)c(-n2c(=O)cc(C(F)(F)F)n(C)c2=O)c1CC(C)(Cl)C(=O)OCC1CCCO1 (stereo not drawn) ... 80
CCOC(=O)CCc1c(OC)c(Cl)cc(F)c1-n1c(=O)cc(C(F)(F)F)n(C)c1=O ... 85
CCCCOC(=O)C(Cl)Cc1c(OC)c(Cl)cc(F)c1-n1c(=O)cc(C(F)(F)F)n(C)c1=O (single isomer, unassigned) [14-9] ... 70
